Read-out: Monokine induced gamma interferon (MIG), CXCL9 (gene 4283)
Experiment: BSK_3C_MIG: BioMAP Diversity Plus: 3C Assay for Monokine induced gamma interferon (MIG) Biomarker Activity (AID 2283021)
Conditions: primary human endothelial cells (HUVEC); actives raise or lower the signal
Active and inactive are the calls of the source. How the source made its calls: active means hit-call score of the fitted dose curve at least 0.9, where 1 is the maximum; inactive means score below 0.9.
Tick one outcome: 1.0 (active), 0.0 (inactive)

Example cases with answers are listed next.
CN(C(=O)C(F)(F)C(F)(F)C(F)(F)F)[Si](C)(C)C; 0.0
O=S(=O)(O)CCC(F)(F)C(F)(F)C(F)(F)C(F)(F)F; 0.0
CCN(CCO)S(=O)(=O)C(F)(F)C(F)(F)C(F)(F)C(F)(F)C(F)(F)C(F)(F)C(F)(F)C(F)(F)F; 0.0

Exam item: Check the results log: what was the call for "NC(=O)C(F)(F)C(F)(F)C(F)(F)C(F)(F)C(N)=O" ?
Marked response: 0.0

----------
Assay: ATG_GRE_CIS: Attagene CIS-FACTORIAL HepG2 Assay for human Glucocorticoid Response Elements (GRE) (AID 2282947)
Settings: HepG2 GRE cis-reporter, Attagene multiplex mRNA; actives raise or lower the signal
Activity calls are given as the source filed them. The calls were made as follows: active = hit-call score of the fitted dose curve at least 0.9, where 1 is the maximum; inactive = score below 0.9.
RESULT_TYPE: outcome

Cc1ccc([N+](=O)[O-])c(C)c1; inactive
CCOC(=O)CCC(C)=O; inactive
O=c1cccc[nH]1; inactive
CC(C)OC(=O)COc1ccc(Cl)cc1Cl; inactive
CCOC(=O)C1CC(=O)C(=C(O)C2CC2)C(=O)C1 (centres undefined); inactive

Hello, I would appreciate it if you could give outcome for each entry below.
1. COC(F)(C(F)F)C(F)(F)F (centres undefined)
2. CCC(Cc1c(I)cc(I)c(N)c1I)C(=O)O (centres undefined)
3. NC(=O)C(F)(F)C(F)(F)C(F)(F)F

Marked response:
["inactive", "inactive", "inactive"]

----------
Assay: CCTE_Shafer_MEA_dev_LDH: CCTE's Lactate Dehydrogenase Assay for Cytotoxicity in the Neural Network Formation Assay, Shafer Lab (AID 2284068);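 further: exposure for twelve days from plating with re-dosing on DIV 5 and 9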
Results filed as inconclusive are left out. Active and inactive are the calls of the source. How the source made its calls: active means hit-call score of the fitted dose curve at least 0.9, where 1 is the maximum; inconclusive means response in the unintended direction; inactive means score below 0.9.
Tick one outcome: active, inactive

OCC(F)(F)C(F)(F)C(F)(F)C(F)(F)C(F)(F)C(F)(F)CO; inactive
OCC(F)(F)C(F)(F)C(F)(F)CO; inactive
NC(=O)C(F)(F)C(F)(F)C(F)(F)C(F)F; inactive
CNS(=O)(=O)C(F)(F)C(F)(F)C(F)(F)C(F)(F)C(F)(F)C(F)(F)C(F)(F)C(F)(F)F; inactive
OCCCCC(F)(F)C(F)(F)C(F)(F)C(F)(F)F; inactive

Exam item: Check the results log: what was the call for "C=CC(=O)OCC(F)(F)C(F)(F)C(F)(F)COC(=O)C=C" ?
Marked response: active

Exam item: Check the results log: what was the call for "NC(=O)C(F)(F)C(F)(F)C(F)(F)C(F)(F)C(N)=O" ?
Marked response: inactive

----------
Read-out: Monocyte Chemoattractant Protein-1 (MCP1), CCL2 (gene 6347)
Assay: BSK_4H_MCP1: BioMAP Diversity Plus: 4H Assay for Monocyte Chemoattractant Protein-1 (MCP1) Biomarker Activity (AID 2283018)
Conditions: primary human endothelial cells (HUVEC); actives raise or lower the signal
The source made the active and inactive calls. The calls were made as follows: active = hit-call score of the fitted dose curve at least 0.9, where 1 is the maximum; inactive = score below 0.9.
Tick one outcome: true (1) for active, false (0) for inactive

Example cases with answers are listed next.
NCC(F)(F)C(F)(F)C(F)(F)C(F)(F)C(F)(F)C(F)(F)F; false (0)
C[Si](Cl)(Cl)CCC(F)(F)C(F)(F)C(F)(F)C(F)(F)C(F)(F)C(F)(F)F; false (0)

Exam item: Check the results log: what was the call for "CCOC(C=C(C)CCC=C(C)C)OCC" ?
Marked response: true (1)

Exam item: Check the results log: what was the call for "C[C@]12CC[C@H]3C(=CCc4cc(O)ccc43)[C@@H]1CCC2=O" ?
Marked response: false (0)

----------
Read-out: C-C motif chemokine 2 (Homo sapiens) (UniProt P13500)
Test: BSK_KF3CT_MCP1: BioMAP Diversity Plus: KF3CT Assay for Monocyte Chemoattractant Protein 1 (MCP1/CCL2) Biomarker Activity (AID 2283073)
Conditions: primary human keratinocytes with fibroblasts; actives raise or lower the signal
The source made the active and inactive calls. Rule for the calls: active = hit-call score of the fitted dose curve at least 0.9, where 1 is the maximum; inactive = score below 0.9.
RESULT_TYPE: outcome

Recorded results for 5 molecules are shown here.
NS(=O)(=O)C(F)(F)C(F)(F)C(F)(F)C(F)(F)C(F)(F)C(F)(F)F; inactive
O=C1c2c(O)ccc(Nc3ccc(CCO)cc3)c2C(=O)c2c([N+](=O)[O-])ccc(O)c21; inactive
O=C(O)CCC(F)(F)C(F)(F)C(F)(F)F; inactive
NCC(F)(F)C(F)(F)C(F)(F)C(F)(F)C(F)(F)C(F)(F)F; inactive
OCC(O)CC(F)(F)C(F)(F)C(F)(F)C(F)(F)C(F)(F)C(F)(F)C(F)(F)C(F)(F)F (centres undefined); inactive

Hello, I would appreciate it if you could give outcome for each entry below.
1. FC(F)(F)C(F)(F)C(F)(F)C(F)(F)C(F)(F)C(F)(F)CC[Si](Cl)(Cl)Cl
2. NC(=O)C(F)(F)C(F)(F)C(F)(F)C(F)(F)C(F)(F)C(F)(F)C(F)(F)F
3. O=C(Cl)C(F)(F)C(F)(F)C(F)(F)C(F)(F)C(F)(F)C(F)(F)C(F)(F)F
4. O=C(O)C(F)(F)C(F)(F)C(F)(F)OC(F)(C(F)(F)F)C(F)(F)F

Marked response:
["inactive", "inactive", "inactive", "inactive"]

----------
Read-out: CD40, CD40 (gene 958)
Assay: BSK_LPS_CD40: BioMAP Diversity Plus: LPS Assay for CD40 Biomarker Activity (AID 2283076)
Details: primary human HUVEC with PBMC; actives raise or lower the signal
Active and inactive are the calls of the source. Rule for the calls: active = hit-call score of the fitted dose curve at least 0.9, where 1 is the maximum; inactive = score below 0.9.
Tick one outcome: T (active), F (inactive)

OCC(F)(F)C(F)(F)C(F)(F)C(F)(F)C(F)(F)C(F)(F)CO; F
O=C(O)C(F)(F)C(F)(F)C(F)(F)OC(F)(F)F; F
O=C=Nc1cccc2c(N=C=O)cccc12; F
O=S(=O)(Cl)C(F)(F)C(F)(F)C(F)(F)C(F)(F)C(F)(F)C(F)(F)C(F)(F)C(F)(F)F; F
O=C(c1ccccc1)c1ccc(O)cc1O; F

Exam item: Check the results log: what was the call for "Cc1ccc(O)c(-n2nc3ccccc3n2)c1" ?
Marked response: F

Exam item: Check the results log: what was the call for "NCC(F)(F)C(F)(F)C(F)(F)C(F)(F)C(F)(F)C(F)(F)F" ?
Marked response: F

Exam item: Check the results log: what was the call for "Cc1cc(O)c(C(C)(C)C)cc1C(C)(C)C" ?
Marked response: T

Exam item: Check the results log: what was the call for "O=C1C=CC(=O)N1c1ccc(Cc2ccc(N3C(=O)C=CC3=O)cc2)cc1" ?
Marked response: T

Exam item: Check the results log: what was the call for "Cc1cc(C)c(O)c(C(C)(C)C)c1" ?
Marked response: T

Exam item: Check the results log: what was the call for "Cc1cnccn1" ?
Marked response: F

----------
Target: Transcription factor Sp1 (Homo sapiens)
Test: ATG_Sp1_CIS: Attagene CIS-FACTORIAL HepG2 Assay for human Specificity Protein 1 (Sp1) (AID 2282961)
Conditions: HepG2 Sp1 cis-reporter transcription, actives raise or lower the signal
Calls of active or inactive are those of the source. The calls were made as follows: active = hit-call score of the fitted dose curve at least 0.9, where 1 is the maximum; inactive = score below 0.9.
RESULT_TYPE: outcome

Cc1ccc(O)cn1; inactive
COC(F)(C(F)F)C(F)(F)F (stereo unspecified); inactive
CCCCOC(=O)[C@H](C)O; inactive
Cc1ccc(O)c(-n2nc3ccccc3n2)c1; inactive

Hello, I would appreciate it if you could give outcome for each entry below.
1. CC1=CCC(=O)O1
2. O=C1c2c(O)ccc(Nc3ccc(CCO)cc3)c2C(=O)c2c([N+](=O)[O-])ccc(O)c21

Marked response:
1: inactive; 2: inactive

----------
Assay: CCTE_Shafer_MEA_dev_network_spike_number: CCTE's Neural Network Formation Assay for Number of Network Spikes, Shafer Lab (AID 2284048);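 further: synchronized bursts across electrodes counted on days 5 7 9 12 and integrated as AUC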
Calls of active or inactive are those of the source. The calls were made as follows: active = hit-call score of the fitted dose curve at least 0.9, where 1 is the maximum; inactive = score below 0.9.
Tick one outcome: true (1) = active, false (0) = inactive

Example cases with answers are listed next.
OCC(F)(F)C(F)(F)C(F)(F)CO; false (0)
O=S(=O)(O)CCC(F)(F)C(F)(F)C(F)(F)C(F)(F)C(F)(F)C(F)(F)C(F)(F)C(F)(F)F; false (0)
CCN(CCO)S(=O)(=O)C(F)(F)C(F)(F)C(F)(F)C(F)(F)C(F)(F)C(F)(F)C(F)(F)C(F)(F)F; false (0)
C=CC(=O)OCCC(F)(F)C(F)(F)C(F)(F)C(F)(F)F; false (0)
CO[Si](C)(CCC(F)(F)C(F)(F)C(F)(F)C(F)(F)C(F)(F)C(F)(F)F)OC; false (0)

Exam item: Check the results log: what was the call for "O=S(=O)(O)CCC(F)(F)C(F)(F)C(F)(F)C(F)(F)F" ?
Marked response: false (0)

Exam item: Check the results log: what was the call for "C=CC(=O)OCC(F)(F)C(F)(F)C(F)(F)COC(=O)C=C" ?
Marked response: true (1)

Exam item: Check the results log: what was the call for "NC(O)(C(F)(F)F)C(F)(F)F" ?
Marked response: false (0)

Exam item: Check the results log: what was the call for "NC(=O)C(F)(F)C(F)(F)C(F)(F)C(F)F" ?
Marked response: false (0)

Exam item: Check the results log: what was the call for "NC(=O)C(F)(F)C(F)(F)C(F)(F)F" ?
Marked response: false (0)

Exam item: Check the results log: what was the call for "OCC(F)(F)C(F)(F)C(F)(F)C(F)(F)C(F)(F)C(F)(F)CO" ?
Marked response: false (0)

Exam item: Check the results log: what was the call for "FC(F)(F)C(F)(F)C(F)(F)C(F)(F)C(F)(F)C(F)(F)C(F)(F)CCI" ?
Marked response: false (0)

Exam item: Check the results log: what was the call for OCC(O)CC(F)(F)C(F)(F)C(F)(F)C(F)(F)F (centres undefined) ?
Marked response: false (0)

Exam item: Check the results log: what was the call for "OCCCCC(F)(F)C(F)(F)C(F)(F)C(F)(F)F" ?
Marked response: false (0)
